Reference source: PubChem BioAssay (NCATS)

tested on: C2A; assay: qHTS profiling for inhibitors of Plasmodium falciparum proliferation (AID 504749); note: nearly all actives have a fitted effect of over 60% in size; conditions: P. falciparum in erythrocytes, SYBR Green DNA, 72 h; series mostly up to 28.7 µM
Inconclusive results are not listed. The source made the active and inactive calls. Calls come from the whole dose curve; as a rule, active = well fitted inhibition curve with a large enough effect; inconclusive = small, poorly fitted or top-dose-only effect; inactive = flat fitted curve, though single readings scatter.
Outcomes: Yes (active), No (inactive)

| Compound | Discrete Label |
| --- | --- |
| CC[C@@]1(O)C(=O)OCc2c1cc1n(c2=O)Cc2cc3c(CN(C)C)c(O)ccc3nc2-1 | Yes |
| NC12CC3CC(CC(C3)C1)C2 | No |
| O=C1N(c2ccccc2)c2ccccc2C1(Cc1ccncc1)Cc1ccncc1 | No |
| CN1C(C(=O)Nc2ccccn2)=C(O)c2ccccc2S1(=O)=O | No |
| CC[N+](CC)(CC)CCOc1cccc(OCC[N+](CC)(CC)CC)c1OCC[N+](CC)(CC)CC | No |
| CC(C)C(=O)Nc1ccc([N+](=O)[O-])c(C(F)(F)F)c1 | No |
| COc1nc(C)nc(Cl)c1NC1=NCCN1 | No |
| Cn1c(=O)c2[nH]cnc2n(C)c1=O | No |
| CC(C)NCC(O)COc1ccc(CCOCC2CC2)cc1 (configuration not stated) | No |
| COc1ccccc1OCCNCC(O)COc1cccc2[nH]c3ccccc3c12 (configuration not stated) | Yes |
| NC(=O)OCC(COC(N)=O)c1ccccc1 | No |
| NCCCCCC(=O)O | No |

---

assay: Drug repurposing screens with cells derived from glioblastoma tumor samples (AID 1345199); settings: GBM patient neurospheres viability, ATP luminescence, 48 h; at 46.1 µM (top of the series); tumour line C; note: % is set by controls: 0 for no effect and ±100 for the full control effect; nearly all actives have a fitted effect of over 40% in size
Inconclusive results are not listed. The source made the active and inactive calls. Calls come from the whole dose curve; as a rule, active = well fitted inhibition curve with a large enough effect; inconclusive = small, poorly fitted or top-dose-only effect; inactive = flat fitted curve, though single readings scatter.

| Compound | activity, negative = cell killing |
| --- | --- |
| COc1ccc(CCN(C)CCCC(C#N)(c2ccc(OC)c(OC)c2)C(C)C)cc1OC (configuration not stated) | -2.06% (inactive) |
| Cc1ccc(-c2cc(C(F)(F)F)nn2-c2ccc(S(N)(=O)=O)cc2)cc1 | 15.9% (inactive) |
| Clc1ccc2nsnc2c1NC1=NCCN1 | 8.38% (inactive) |
| Nc1ccn([C@H]2CC[C@@H](CO)O2)c(=O)n1 | -9.64% (inactive) |
| Cn1c(=O)c2[nH]cnc2n(C)c1=O | -5.36% (inactive) |
| CN1CCC(=C2c3ccccc3CC(=O)c3sccc32)CC1 | -13.4% (inactive) |
| CCCCc1oc2ccccc2c1C(=O)c1cc(I)c(OCCN(CC)CC)c(I)c1 | 2% (inactive) |

---

biological target: Beta-2 adrenergic receptor (Homo sapiens) (UniProt P07550); assay: qHTS validation assay of beta-arrestin-biased ligands of beta2-adrenergic receptor (AID 485366); conditions: cell-based beta-arrestin recruitment to ADRB2, qHTS; series mostly up to 46.1 µM; note: 0% is about no effect
Sequence (P07550 whole entry, looked up): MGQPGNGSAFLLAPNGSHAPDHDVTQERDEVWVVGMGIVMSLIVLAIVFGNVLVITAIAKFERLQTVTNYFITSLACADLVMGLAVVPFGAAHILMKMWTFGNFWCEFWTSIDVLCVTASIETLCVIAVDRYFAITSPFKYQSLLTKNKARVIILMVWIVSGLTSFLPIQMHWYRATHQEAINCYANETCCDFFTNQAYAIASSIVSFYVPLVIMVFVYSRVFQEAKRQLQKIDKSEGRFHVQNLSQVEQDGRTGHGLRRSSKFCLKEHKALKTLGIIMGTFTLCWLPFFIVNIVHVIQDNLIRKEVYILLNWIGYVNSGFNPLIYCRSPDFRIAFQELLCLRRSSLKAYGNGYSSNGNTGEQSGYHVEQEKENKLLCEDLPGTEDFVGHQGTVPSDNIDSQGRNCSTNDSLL
Activity calls are given as the source filed them. The call rests on the fitted dose curve; in most records, active means well fitted curve in the direction sought with a large enough effect; inconclusive means small, poorly fitted or top-dose-only effect, or effect the other way, or another doubt; inactive means no such curve, though single readings can be large or run the other way.
Value Kind: outcome

| Compound | Result |
| --- | --- |
| CC(C)C(=O)Nc1ccc([N+](=O)[O-])c(C(F)(F)F)c1 | inactive |
| C[C@H]1c2cccc(O)c2C(O)=C2C(=O)[C@]3(O)C(O)=C(C(N)=O)C(=O)[C@@H](N(C)C)[C@@H]3[C@@H](O)[C@@H]21 | inactive |
| Cn1c(=O)c2c(ncn2C)n(C)c1=O | inactive |
| COc1nc(C)nc(Cl)c1NC1=NCCN1 | inactive |
| COc1ccccc1OCC(O)CN1CCN(CC(=O)Nc2c(C)cccc2C)CC1 (configuration not stated) | inactive |
| CN1CCC(=C2c3ccccc3CC(=O)c3sccc32)CC1 | inactive |
| Cn1ccc2cc3c(cc21)CCN3C(=O)Nc1cccnc1 | inactive |
| CCOC(=O)C(C)(C)Oc1ccc(Cl)cc1 | inactive |
| Clc1ccc(C(c2ccccc2Cl)C(Cl)Cl)cc1 (configuration not stated) | inactive |
| CCOC(=O)c1ncn2c1CN(C)C(=O)c1cc(F)ccc1-2 | inactive |
| CN(C)CCCN1c2ccccc2CCc2ccc(Cl)cc21 | inactive |
| NC12CC3CC(CC(C3)C1)C2 | inactive |
| CN1C(C(=O)Nc2ccccn2)=C(O)c2ccccc2S1(=O)=O | inactive |
| CC12CC3CC(C)(C1)CC(N)(C3)C2 | inactive |
| O=C(C1CCCCC1)N1CC(=O)N2CCc3ccccc3C2C1 (configuration not stated) | inactive |
| CCc1cccc2c3c([nH]c12)C(CC)(CC(=O)O)OCC3 (configuration not stated) | inactive |
| O=c1c(O)c(-c2ccc(O)c(O)c2)oc2cc(O)cc(O)c12 | inactive |
| Clc1ccc2c(c1)C(N1CCNCC1)=Nc1ccccc1O2 | inactive |
| CN1CCC(=C2c3ccccc3C=Cc3ccccc32)CC1 | inactive |
| NCCS(=O)(=O)O | inactive |
| CS(=O)(=O)Nc1ccc([N+](=O)[O-])cc1Oc1ccccc1 | inactive |
| CC(C(=O)O)c1cccc(C(=O)c2ccccc2)c1 (configuration not stated) | inactive |
| N[C@@H](Cc1c[nH]c2ccc(O)cc12)C(=O)O | inactive |
| CN1C2CCC1CC(OC(=O)C(CO)c1ccccc1)C2 (configuration not stated) | inactive |
| COC(=O)Nc1nc2ccc(C(=O)c3cccs3)cc2[nH]1 | inactive |
| Nc1ccn([C@H]2CC[C@@H](CO)O2)c(=O)n1 | inactive |
| COc1cc2c(c(OC)c1OC)-c1ccc(OC)c(=O)cc1[C@@H](NC(C)=O)CC2 | inactive |
| COc1cc2nc(N3CCN(C(=O)c4ccco4)CC3)nc(N)c2cc1OC | inactive |
| CN(C)CCOC(c1ccccc1)c1ccccc1 | inactive |
| CC(CCc1ccc(O)cc1)NCCc1ccc(O)c(O)c1 (configuration not stated) | inactive |
| COc1cc2nc(N(C)CCCNC(=O)C3CCCO3)nc(N)c2cc1OC (configuration not stated) | inactive |
| COc1ccc(CCN(C)CCCC(C#N)(c2ccc(OC)c(OC)c2)C(C)C)cc1OC (configuration not stated) | inactive |
| O=C1N(c2ccccc2)c2ccccc2C1(Cc1ccncc1)Cc1ccncc1 | inactive |
| NC(CO)C(=O)NNCc1ccc(O)c(O)c1O (configuration not stated) | inactive |
| Cc1cc(C(C)(C)C)cc(C)c1CC1=NCCN1 | inactive |
| O=C(Nc1ccc([N+](=O)[O-])cc1Cl)c1cc(Cl)ccc1O | inactive |
| CC(C)Cc1ccc(C(C)C(=O)O)cc1 (configuration not stated) | inactive |
| CN(C)c1nc(N(C)C)nc(N(C)C)n1 | inactive |
| O=C1Cc2cc(CCN3CCN(c4nsc5ccccc45)CC3)c(Cl)cc2N1 | inactive |
| CC1COc2c(N3CCN(C)CC3)c(F)cc3c(=O)c(C(=O)O)cn1c23 (configuration not stated) | inactive |
| NS(=O)(=O)c1cc2c(cc1Cl)NCNS2(=O)=O | inactive |
| CC[N+](CC)(CC)CCOc1cccc(OCC[N+](CC)(CC)CC)c1OCC[N+](CC)(CC)CC | inactive |
| CCN1CCCC1CNC(=O)c1cc(S(=O)(=O)CC)c(N)cc1OC (configuration not stated) | inactive |
| Clc1ccc2nsnc2c1NC1=NCCN1 | inactive |
| COc1ccc2[nH]cc(CCNC(C)=O)c2c1 | inactive |
| CCOC(=O)Nc1ccc(NCc2ccc(F)cc2)nc1N | inactive |
| O=c1c(-c2ccc(O)cc2)coc2cc(O)cc(O)c12 | inactive |

---

Test system: CAOV3
Assay: Primary qHTS to identify gynecologic anti-cancer compounds using libraries of approved drugs and bioactive compounds (AID 1345084); note: nearly all actives have a fitted effect of over 55% in size
Settings: Gynecologic cancer cell panel viability, ATPlite luminescence, 48 h; series mostly up to 57.5 µM
Source text: National Center for Advancing Translational Sciences [NCATS] Assay Overview: Chemotherapeutic drug responses vary from cancer to cancer and from patient to patient. […] ATPlite is a luminescence based assay reliant on the conversion of a luciferase substrate to light in the presence of ATP. As a cytotoxic compound will suppress growth and decrease the number of cells, the concentration of ATP will decrease, and less light signal will be detected in the well. […]
Inconclusive results are not listed. Active and inactive are the calls of the source. Calls come from the whole dose curve; as a rule, active = well fitted cell-killing curve with a large enough effect; inconclusive = small, poorly fitted or top-dose-only effect, or effect the other way; inactive = flat fitted curve, though single readings scatter.
Outcomes: active, inactive

| Compound | Discrete Label |
| --- | --- |
| Clc1ccc(C(c2ccccc2Cl)C(Cl)Cl)cc1 (stereo not given) | inactive |
| O=C1c2c(O)ccc(O)c2C(=O)c2c(NCCNCCO)ccc(NCCNCCO)c21 | active |
| CC(C)(Oc1ccc(C2CC2(Cl)Cl)cc1)C(=O)O (stereo not given) | inactive |
| OCCN1CCN(CCCN2c3ccccc3Sc3ccc(C(F)(F)F)cc32)CC1 | inactive |
| COc1ccc2c(c1)c(CC(=O)O)c(C)n2C(=O)c1ccc(Cl)cc1 | inactive |
| COc1ccccc1N1CCN(CC(O)COc2cccc3ccccc23)CC1 (stereo not given) | active |
| CC[N+](CC)(CC)CCOc1cccc(OCC[N+](CC)(CC)CC)c1OCC[N+](CC)(CC)CC | inactive |
| CCOC(=O)C(C)(C)Oc1ccc(Cl)cc1 | inactive |
| CN(C)CCOC(c1ccccc1)c1ccccc1 | inactive |
| Clc1ccc2c(c1)C(N1CCNCC1)=Nc1ccccc1O2 | inactive |
| CN1CCC(=C2c3ccccc3C=Cc3ccccc32)CC1 | inactive |
| COC(=O)Nc1nc2ccc(C(=O)c3cccs3)cc2[nH]1 | inactive |
| Clc1ccc2nsnc2c1NC1=NCCN1 | inactive |
| Cc1cc(C(C)(C)C)cc(C)c1CC1=NCCN1 | inactive |
| O=c1[nH]cc(F)c(=O)[nH]1 | inactive |
| OCCN(CCO)c1nc(N2CCCCC2)c2nc(N(CCO)CCO)nc(N3CCCCC3)c2n1 | inactive |
| COc1ccccc1OCC(O)CN1CCN(CC(=O)Nc2c(C)cccc2C)CC1 (stereo not given) | inactive |
| CN(C)c1nc(N(C)C)nc(N(C)C)n1 | inactive |
| CC[C@@]1(O)C(=O)OCc2c1cc1n(c2=O)Cc2cc3c(CN(C)C)c(O)ccc3nc2-1 | active |
| CC(CCc1ccc(O)cc1)NCCc1ccc(O)c(O)c1 (stereo not given) | inactive |
| CCC1(C)CC(=O)NC1=O (stereo not given) | inactive |
| CCN1CCCC1CNC(=O)c1cc(S(=O)(=O)CC)c(N)cc1OC (stereo not given) | inactive |
| NC(=O)NO | inactive |
| CCCCc1oc2ccccc2c1C(=O)c1cc(I)c(OCCN(CC)CC)c(I)c1 | inactive |
| N[C@@H](Cc1c[nH]c2ccc(O)cc12)C(=O)O | inactive |
